- Tested on: Staphylococcus aureus
- TEST_SUMMARY: Antibacterial activity against Staphylococcus aureus ATCC 25365 assessed as growth inhibition after 18 hr by broth microdilution method
- Assay type: functional
- CONDITION_PARAMETERS: ATCC 25365, 18 h
Kindly apply the following: met if MIC is less than 8 µg/mL, not met in every other case.

Task item: Item O=C(O)c1cn(C2CC2)c2cc(N3CCNCC3)c(F)cc2c1=O [CIPROFLOXACIN] : MIC beneath 8 µg/mL, strictly?
Reply: met

Task item: Item O=C(CSc1nnc(N2CCN(c3cc4c(cc3F)c(=O)c(C(=O)O)cn4C3CC3)CC2)s1)c1ccccc1 : MIC beneath 8 µg/mL, strictly?
Reply: not met

Task item: Item CCn1cc(C(=O)O)c(=O)c2cc(F)c(N3CCN(c4nnc(SCC(=O)c5ccc([N+](=O)[O-])cc5)s4)CC3)cc21 : MIC beneath 8 µg/mL, strictly?
Reply: met

Task item: Item CCn1cc(C(=O)O)c(=O)c2cc(F)c(N3CCN(c4nnc(SCC(=O)c5ccc(Cl)cc5)s4)CC3)cc21 : MIC beneath 8 µg/mL, strictly?
Reply: met

Task item: Item CCn1cc(C(=O)O)c(=O)c2cc(F)c(N3CCN(c4nnc(SCC(=O)c5ccccc5)s4)CC3)cc21 : MIC beneath 8 µg/mL, strictly?
Reply: not met

Task item: Item CCn1cc(C(=O)O)c(=O)c2cc(F)c(N3CCNCC3)cc21 [NORFLOXACIN] : MIC beneath 8 µg/mL, strictly?
Reply: met

Origin of the recorded values: ChEMBL document CHEMBL3045188
